For each entry below, report its log10(IC50) value.
TARGET OR TEST SYSTEM: Angiotensin II receptor (AT-1) type-1 (Rattus norvegicus, UniProt P29089+P25095)
PROCEDURE SUMMARY: Binding affinity to Angiotensin II receptor, type 1 as displacement of 125I-Sar, Ile-AII from rat adrenal cortex membranes
Type: cell membranes, Membrane
Field: value | Transform: log10 | Quantity: IC50 | Unit: nM

For orientation, consider the following solved cases.
>>> value("CCCCc1nc2cccnc2n1CCCCCCCO/C(O)=C1\\C(C(C)C)=NC(C)=C(C(=O)Nc2cccnc2)C1c1ccccc1Cl (centres undefined)")
3.30
>>> value("CCCCc1nc2cccnc2n1CCCCCO/C(O)=C1\\C(C(C)C)=NC(C)=C(C(=O)Nc2cccnc2)C1c1ccccc1Cl (centres undefined)")
2.30
>>> value("CCCCc1nc2cccnc2n1-c1ccc(CCO/C(O)=C2\\C(C(C)C)=NC(C)=C(C(=O)Nc3cccnc3)C2c2ccccc2Cl)cc1 (single isomer, unassigned; (-))")
2.11

Dear reader, for each entry below, please note its log10(IC50).
1. CCCCc1nc2cccnc2n1CCCCCCO/C(O)=C1\C(C(C)C)=NC(C)=C(C(=O)Nc2cccnc2)C1c1ccccc1Cl (centres undefined)
2. CCCCc1nc2cccnc2n1-c1ccc(CCO/C(O)=C2\C(C(C)C)=NC(C)=C(C(=O)Nc3cccnc3)C2c2ccccc2Cl)cc1 (stereo in doubt)
3. CCCCc1nc2cccnc2n1-c1ccc(CCO/C(O)=C2\C(C(C)C)=NC(C)=C(C(=O)Nc3ccccn3)C2c2ccccc2Cl)cc1 (centres undefined)

[out]
1. 2.00
2. 2.78
3. 2.08

For every item below, please supply its log10(IC50).
1. CCCCc1nc2cccnc2n1-c1ccc(CCO/C(O)=C2\C(C)=NC(C)=C(C(=O)Nc3ccccn3)C2c2ccccc2Cl)cc1 (centres undefined)
2. CCCCc1nc2cccnc2n1-c1ccc(CCO/C(O)=C2\C(C(C)C)=NC(C)=C(C(=O)Nc3cccnc3)C2c2ccccc2Cl)cc1 (single isomer, unassigned; (+))
3. CCCCc1nc2cccnc2n1-c1ccc(CCO/C(O)=C2\C(C(C)C)=NC(C)=C(C(=O)Nc3cccnc3)C2c2ccccc2Cl)cc1 (stereo in doubt; 12)

[out]
[1.78, 3.72, 2.15]
